- System: E. coli ATCC25922
- test_summary: Bacterial growth minimal inhibitory concentration (microdilution, cation-adjusted Mueller-Hinton Broth)
- Assay type: cell-based
- assay_setup: Escherichia coli, ATCC25922; quinolone-sensitive strain
property: MIC (µg/mL)

                                   compound  property  unit_symbol  endpoint_result
0  CNC1(C#CC#Cc2ccc3c(c2)CN(CC[C@](C)(C(=O)NO)S(C)(=O)=O)C3=O)CC1 [Example 7]       MIC        µg/mL             0.25

(A) C[C@@](CCN1Cc2cc(C#CC#CC3(N)CC3)sc2C1=O)(C(=O)NO)S(C)(=O)=O [Example 3]
(B) C[C@@](CCN1Cc2cc(C#CC#CC3CN(C4CCOCC4)C3)sc2C1=O)(C(=O)NO)S(C)(=O)=O [Example 27]
Pick the one with the larger MIC: A vs B Reply with the label of the item you choose.
A
(A: 0.25 µg/mL, B: 0.125 µg/mL)
